Please go through the items and note down their growth.
- Tested on: SF-539 CNS
- test-name: NCI-60 one-dose screen, 48 h (100 = growth as untreated, 0 = no growth, -100 = all killed)
- test-conditions: 10 µM unless noted
Compounds without any hit were thinned out: in the full panel of roughly 83,000, 20% have a hit.
Please give a number only; it is taken to be in %.

growth of "C=CCn1c(-c2ccc(-c3nc4ccc(C)cc4[nH]3)cc2)n[nH]c1=S" on SF-539 CNS?
97

Record: OC(c1ccc(F)c(C(F)(F)F)c1)c1cnccc1NC1CCCCC1 (stereo not given)
85.4

Record: "CC(C)(C)c1cc(C=O)cc(C(C)(C)C)c1O"
102

Record: "O=S(=O)(NCCNc1nccc(-c2c(-c3cccc(O)c3)nc3occn23)n1)c1ccc(Cl)cc1"
121

Record: "COc1ccc(Cc2cnc(NC(=O)c3ccc4c(c3)OCCO4)s2)cc1"
-1.94

Record: "CCCCNC(=O)Oc1ccc(/C(=C(\C)c2ccccc2)c2ccc(OCCN3CCCCC3)cc2)cc1"
31

Record: "COc1cc2nc(-c3ccc(C(F)(F)F)cc3)cc(OCCCN3CCOCC3)c2cc1OC"
46

Record: "CCc1c(Cl)nc(N)nc1Nc1ccc(C)c(C)c1"
100

Record: "O=C1c2cccc3c(-c4ccc5c(c4)ncn5C4CCCCC4)ccc(c23)C(=O)N1c1nc2ccccc2s1"
95.7

Record: "CCc1c2c(nc3ccc(OCc4ccc(B(O)O)cc4)cc13)-c1cc3c(c(=O)n1C2)COC(=O)[C@]3(O)CC"
-7.49

Record: CCN(CC)CCCC(C)Nc1cc(O)cc2cccnc12 (stereo not given)
103

Record: "COc1ccc(/C=C/c2nc(Nc3ccc(S(=O)(=O)NC(C)=O)cc3)c3ccccc3n2)cc1"
97.3

Record: "COc1ccc(/C=C/C(=O)Nc2cc(/C=C\c3cc(OC)c(OC)c(OC)c3)cc(OC)c2OC)cc1OC"
28.6

Record: "O=S(=O)(NCCNc1nccc(-c2c(-c3cccc(O)c3)nc3occn23)n1)c1cccc(F)c1"
111

Record: "COc1cccc(-c2cc(C(=O)Nc3ccc(/C=C/c4ccc(OC5CCN(C)CC5)cc4)cc3)ccc2OC)c1"
8.18

Record: "Cc1ccc(-c2csc(NC(=O)CSc3nc(-c4ccccc4)cc(=O)[nH]3)n2)cc1"
97.7

Record: "N#C/C(=C\c1ccc(C(F)(F)F)cc1)c1cc2ccccc2[nH]1"
107

Record: "CCNc1nc2ccc(Nc3ccnc4cc(Cl)ccc34)cc2[nH]1"
85.6

Record: "N/C(=N\C(N)=N\c1nc2ccccc2s1)c1cnccn1"
16

Record: "N#Cc1c(NC(=O)NCc2ccccc2)sc2c1CCCCC2"
-5.27

====

- Test system: OVCAR-4 ovarian
- test-name: NCI-60 one-dose screen, 48 h (100 = growth as untreated, 0 = no growth, -100 = all killed)
- test-conditions: 10 µM unless noted
Compounds without any hit were thinned out: in the full panel of roughly 83,000, 20% have a hit.
measured-quantity: growth (%)
Please give a number only; it is taken to be in %.

Item under review: "COc1ccc(CNCCN2C(=O)c3ccc4c5c(ccc(c35)C2=O)C(=O)N(CCNCc2ccc(OC)c(OC)c2OC)C4=O)c(OC)c1OC" . Reported growth?
-94.1

Record: "CCN1CCN(CCNc2nccc(-c3c(-c4cccc(OC)c4)nc4occn34)n2)S1(=O)=O"
114

Record: "COC(=O)CNC(=O)[C@]12CCC(C)(C)C[C@H]1C1=CC[C@@H]3[C@@]4(C)Cc5c([nH]c6ccccc56)C(C)(C)[C@@H]4CC[C@@]3(C)[C@]1(C)CC2"
77

Record: "O=C(N/N=C/c1cc2ccccc2n2nnnc12)Nc1ccccc1"
108

====

- System: NCI/ADR-RES ovarian
- test-name: NCI-60 one-dose screen, 48 h
- test-conditions: 10 µM unless noted
The panel holds about 83,000 compounds, 20% with a hit somewhere; the sample as a whole holds those more often. The source made the active and inactive calls. How the source made its calls: active means growth percent below 10; inactive means the rest.
Mark one answer only. Choices: 1.0 = active, 0.0 = inactive

For "O=C1Nc2cc(-c3ccc(NC(=O)C4CC4)cc3)ccc2/C1=C/c1ccc[nH]1" , which call appears in the assay record?
0.0

Record: "Nc1ccccc1NC(=O)c1ccc(-n2nc(-c3ccccc3)c3ccccc32)cc1"
0.0

Record: "CCN(CC)CCn1c(=O)c2cc(OC)c(OC)cc2c2ccc3cc4c(cc3c21)OCO4"
0.0

Record: "CN(C)c1ccc(Nc2c3ccccc3nc3cc(NC(=O)CCN4CCCC4)ccc23)cc1"
0.0

Record: "O=C(CCN1CCCC1)Nc1ccc2c(Nc3ccc(Br)cc3)c3ccccc3nc2c1"
0.0

Record: "COc1ccc2c(c1)oc1c(C)c3c(c(C)c12)C(=O)N(N)C3=O"
0.0

Record: O=[N+]([O-])CC(c1ccccc1)c1c[nH]c2ccccc12 (configuration not stated)
0.0

Record: COc1cc2c(c(OC)c1OC)-c1ccc(NNC(=S)N(Cc3cccc(C[N+](Cc4cccc(CNC56CC7CC(CC(C7)C5)C6)c4)(Cc4cccc(CNC56CC7CC(CC(C7)C5)C6)c4)Cc4cccc(CN(C(=S)NNc5ccc6c(cc5=O)[C@@H](NC(C)=O)CCc5cc(OC)c(OC)c(OC)c5-6)C56CC7CC(CC(C7)C5)C6)c4)c3)C34CC5CC(CC(C5)C3)C4)c(=O)cc1[C@@H](NC(C)=O)CC2 (some centres not stated)
0.0

Record: "CCOC(=O)Nc1ccc(-c2ccc3c(c2)NC(=O)/C3=C\c2ccc[nH]2)cc1"
0.0

Record: "COC(=O)/C=C1\S/C(=N\NC(=O)c2cc3ccc2/C=C\c2ccc(cc2)/C=C\3)N(c2ccccc2)C1=O"
0.0

Record: "Cc1ccc(NS(=O)(=O)c2ccc(-c3cnc(C4CC4)o3)cc2)cc1C(F)(F)F"
0.0

Record: COc1cc(C2=NN(C(C)=O)C(c3cc(OC)c(OC)c(OC)c3)C2)ccc1O (configuration not stated)
1.0

Record: CCN(CC)CCCC(C)Nc1cc(O)cc2cccnc12 (configuration not stated)
0.0

Record: "COc1cc(/C=C\c2cc(/C=C\c3ccc(O)c(OC)c3)n(C(=O)COc3ccccc3)n2)ccc1O"
0.0

Record: "O=C(Nc1ccc(-c2ccc3c(c2)NC(=O)/C3=C\c2ccc[nH]2)cc1)NC1CC1"
0.0

Record: "CCCCCCNC(=O)Oc1ccc(/C(=C(\C)c2ccccc2)c2ccc(OCCN3CCCCC3)cc2)cc1"
0.0

Record: "N#C/C(=C\c1ccc(Cl)cc1)n1nnc2cc(F)c(F)cc21"
0.0

====

- System: NCI-H522 lung
- test-name: NCI-60 one-dose screen, 48 h
- test-conditions: 10 µM unless noted
This is part of a sample that, as a whole, favours compounds with a hit. Of some 83,000 tested, about 20% had one in any assay. Activity calls are given as the source filed them. Rule for the calls: active = growth percent below 10; inactive = the rest.
Mark one answer only. Choices: active, inactive

For "Cc1ccc(/C=C(/C#N)n2nnc3cccc(F)c32)cc1" , which call appears in the assay record?
inactive

Record: "O=C1/C=C/[C@@H](O)[C@@H]2C[C@@H](O)C[C@H]2/C=C/CCC[C@H](CCc2cccc3ccccc23)O1"
active

Record: "COc1c(Cl)c2c(c(OC)c1OC)-c1ccc(SC)c(=O)cc1[C@@H](NC(=O)OCC(F)(F)F)CC2"
inactive

Record: "O=C(Cc1ccccc1)NNc1nc(Cl)nc(N2CCN(C(c3ccccc3)c3ccccc3)CC2)n1"
active

Record: "CCc1ccc(CNc2ccc(N3CCOCC3)c(C(=O)O)c2)cc1"
inactive

Record: "O=C(/C=C/c1ccc(Cl)cc1)c1ccc(NC(=O)N2CCN(c3cc4c(cc3F)c(=O)c(C(=O)O)cn4C3CC3)CC2)cc1"
inactive

Record: "Cc1nc2sccn2c1-c1cn2ccsc2n1"
inactive

Record: "CCN(CC)c1ccc(/C=N/NC(=O)CSc2nc3ccccc3c(=O)n2CCc2ccc(S(N)(=O)=O)cc2)c(O)c1"
active

Record: CC(C)(C)[Si](C)(C)OC1[C@@H](O[Si](C)(C)C(C)(C)C)[C@@H](CNC(=O)NC(=O)CCl)O[C@H]1n1cnc2c(NC(=O)Nc3ccccc3)ncnc21 (stereo partly drawn)
active

Record: "Cn1c(-c2c(N)n(CCCN3CCOCC3)c3nc(C#N)c(C#N)nc23)nc2ccccc21"
inactive

Record: "C=CCN1C(=O)/C(=C/C(=O)OC)S/C1=N\NC(=O)c1cc2ccc1/C=C\c1ccc(cc1)/C=C\2"
inactive

Record: "CCCCCCCCCCCCCCCC[N+]1(C)CCN(SN2CC[N+](C)(CCCCCCCCCCCCCCCC)CC2)CC1"
inactive

Record: COc1ccc(/C=N/NC(=O)c2cnn3c2NC(c2ccccc2)C3)cc1OC (stereo not drawn)
inactive

Record: "CC(=O)O[C@H]1Cc2c([nH]c3ccccc23)[C@@H](c2ccc(Cl)cc2)N1C(=O)CCNC(C)(C)C"
inactive

Record: "O=C1Nc2cc(-c3cccc(O)c3)ccc2/C1=C/c1ccc[nH]1"
active

Record: "COc1cc2c(=O)n(CCCN(C)C)c3c4cc5c(cc4ccc3c2cc1OC)OCO5"
inactive

Record: "O=C1c2ccc3c4c(ccc(c24)C(=O)N1CCCNCc1ccccc1F)C(=O)N(CCCNCc1ccccc1F)C3=O"
active

Record: "CCCNC(=O)Oc1ccc(/C(=C(\C)c2ccccc2)c2ccc(OCCCN(C)C)cc2)cc1"
inactive
